Measured pIC50 values are reported for all entries that follow.
- Test system: CEM cells HIV-1 protection, formazan growth assay
- Protocol summary: NCI AIDS Antiviral Assay
- Recorded conditions: measured here: growth of uninfected CEM cells
Please report pIC50 as the negative decimal logarithm of the molar concentration, giving only the number.

CCOC(=O)/C=C\SCCC(=O)OC    3.13

Lab note: CEM cells HIV-1 protection, formazan growth assay assay, enter pIC50 for CN1C(C(=O)Nc2nccs2)=C(O)c2ccccc2S1(=O)=O here
3.72

Lab note: CEM cells HIV-1 protection, formazan growth assay assay, enter pIC50 for CCCSS/C(CCO)=C(\C)N(C=O)Cc1cnc(C)nc1N here
4.98

Lab note: CEM cells HIV-1 protection, formazan growth assay assay, enter pIC50 for CC12C(C(=O)O)C(=O)C(C(=O)O)C1(C)C(C(=O)O)C(=O)C2C(=O)O (stereo unspecified) here
3.40

Reference for the values: PubChem BioAssay AID179
